Tested on: CEM cells HIV-1 protection, formazan growth assay
Assay: NCI AIDS Antiviral Assay
This listing pairs molecules with measured EC50.

Some solved entries appear below for comparison.
# Molecule, Tested on, Experimental readout, Assay value
data = [
    ("CN1CCC2(CC1)C(C#N)C(=O)NC(=O)C2C#N (configuration not stated)", "CEM cells HIV-1 protection, formazan growth assay", "EC50", "> 339 µM"),
    ("COc1ccccc1C1OC(c2ccccc2OC)C2CCN(C)C2(C)O1 (configuration not stated)", "CEM cells HIV-1 protection, formazan growth assay", "EC50", "> 200 µM"),
    ("Cc1cc2[nH]c3c(C#N)c4c(c(=O)n3c2cc1C)CCCC4", "CEM cells HIV-1 protection, formazan growth assay", "EC50", "> 200 µM"),
    ("NC(CSS(=O)(=O)O)=NCCc1c[nH]c(=S)[nH]1", "CEM cells HIV-1 protection, formazan growth assay", "EC50", "> 200 µM"),
    ("CC12Nc3c(Cl)cc(Cl)cc3N1C(=O)c1ccccc12 (configuration not stated)", "CEM cells HIV-1 protection, formazan growth assay", "EC50", "> 200 µM"),
]

Q: # get_value(readout='EC50', item= Cc1cc2c(s1)C(N)CC2=O (configuration not stated) )
Result: > 200 µM

Q: Item: `CCOC(=O)c1cnn2c1ncc1c(=O)n(NC(N)=O)ccc12`
Result: > 200 µM

Q: Item: `O=C1/C(=C/c2ccc([N+](=O)[O-])cc2)CCCc2ccccc21`
Result: > 141 µM

Q: Item: CON(C)C(=O)C(C)N(Cc1ccccc1)Cc1ccccc1 (configuration not stated)
Result: > 83.2 µM

Q: Item: Cc1ccc(S(=O)(=O)OC2C(C)OCOC3COCOC32)cc1 (configuration not stated)
Result: > 145 µM

Q: Item: `COc1cccc(NC(=O)CSc2nnc(-c3ccc(NC(C)=O)cc3)o2)c1`
Result: > 64.6 µM

Q: Item: `COc1cc(C(=O)N/N=C/N(C)C)cc(OC)c1OC`
Result: > 200 µM
